test: HepG2 cytotoxicity, primary screen, cytotoxicity control for P. falciparum antimalarial project, cell-based, ATP luminescence (AID 2303); conditions: HepG2 viability, 24-48 h, at 10 µM, active compounds read high;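 note: 0% = DMSO wells and 100% = digitonin-killed cells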
The threshold is 10%. Values of inhibition beneath it are tagged yes (1); values meeting or exceeding it are tagged no (0).

Field: example entries. Status: answers known.
{"Compound": "Fc1ccc(-c2cncc(-c3ccc(F)cc3)n2)cc1", "Label": "yes (1)"}
{"Compound": "CCOc1ccc2c(c1)OC(c1ccccc1)(C(F)(F)F)NC2=O (stereo not drawn)", "Label": "yes (1)"}
{"Compound": "CC(=O)c1ccc(NC(=O)Nc2ccc3nccc(N4CCN(C)CC4)c3c2)cc1", "Label": "yes (1)"}
{"Compound": "CCNC(=O)Nc1cccc(-c2cccc(-c3nc4ccc(C(F)(F)F)cc4[nH]3)c2)c1", "Label": "no (0)"}
{"Compound": "O=C(/C=C/c1ccc(Cl)c(Cl)c1)NCCCCCCN1CCN(C(=O)Nc2cc(Cl)nc(Cl)c2)CC1", "Label": "no (0)"}
{"Compound": "Clc1ccc(CNc2nc(NCCc3cnc[nH]3)nc(Nc3ccc4c(c3)OCO4)n2)cc1", "Label": "yes (1)"}

Exercise: Does the reported inhibition of the following compound sit strictly below 10%? COC(=O)CCCOc1cc(Cc2cnc(N)nc2N)cc(OC)c1OC
Key: no (0)

Exercise: Does the reported inhibition of the following compound sit strictly below 10%? CN(C)CC(=O)Nc1ccc(-c2ccc3ccnc(N)c3c2)cc1
Key: no (0)

Exercise: Does the reported inhibition of the following compound sit strictly below 10%? CCN(CC)CCCC(C)Nc1c(-c2ccc(Br)cc2)cnc2ccccc12 (stereo not drawn)
Key: yes (1)

Exercise: Does the reported inhibition of the following compound sit strictly below 10%? NC(=NCc1ccccc1Cl)NCCc1c[nH]c2ccccc12
Key: no (0)

====

experiment: inhibition of 3D7 malaria parasite growth – strain 3D7 (AID 2306);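 note: 0% = DMSO wells and 100% = chloroquine plus artemisinin control wells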; details: P. falciparum 3D7 erythrocytic growth, LDH absorbance, 72 h; at 2 µM; active compounds read high
Parameter Measured: growth inhibition (%)
Answers are plain numbers, in %.

Use these answered entries as a reference point.
{"Compound": "COc1ccc(CCNc2nc(N)c3cc(OC)c(OC)cc3n2)cc1", "growth inhibition (%)": 100}
{"Compound": "Cc1[nH]c(C)c(-c2ccc(OCc3cc(C(F)(F)F)cc(C(F)(F)F)c3)nc2)c(=O)c1Br", "growth inhibition (%)": 98}

Consider the additional compound presented here.
Exercise: Fill blank: measured growth inhibition of the compound O=C(NC1CCCCN(Cc2ccc3c(c2)OCCO3)C1)c1cc(-c2ccccc2F)cs1 (stereo not drawn) is ____.
Key: 92

====

assay: HepG2 cytotoxicity, primary screen, cytotoxicity control for P. falciparum antimalarial project, cell-based, ATP luminescence (AID 2303); conditions: HepG2 viability, 24-48 h, at 10 µM;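 note: 0% = DMSO wells and 100% = digitonin-killed cells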
The source made the active and inactive calls.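 How the source made its calls: active means inhibition above 50%; inactive means the rest.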
Hi there, use one of these labels in your reply, thanks! 1.0 (active), 0.0 (inactive)

Field: example entries. Status: answers known.
{"Compound": "Cc1cc(N)c2cc(NC(=O)/C=C/c3ccc([N+](=O)[O-])cc3)ccc2n1", "Label": 1.0}
{"Compound": "CCC(=O)Oc1ccc(NC(=O)c2cccc(OC)c2)cc1", "Label": 0.0}
{"Compound": "Cc1cccc2[nH]c(-c3ccc(-c4ccc(CN5CCC(C(N)=O)CC5)cc4)s3)nc12", "Label": 0.0}
{"Compound": "Cc1cc(N[C@@H](Cc2ccccc2)C(=O)NCCOc2ccccc2)nc(NCc2ccccc2C)n1", "Label": 0.0}

Exercise: What outcome does the record of this test show for CCC(=O)Nc1nnc(Cc2ccc(OC)c(OC)c2)s1 ?
Key: 0.0

Exercise: What outcome does the record of this test show for O=C(NCCCCN1CCC(O)(c2ccc3c(c2)OCO3)CC1)c1ccc(NC(=O)c2ccc(Cl)cc2)cc1 ?
Key: 0.0

Exercise: What outcome does the record of this test show for Oc1ccc(CCNCCCCCCNCCc2ccc(Cl)cc2)c(Cl)c1O ?
Key: 0.0

Exercise: What outcome does the record of this test show for Cc1ccc(-n2c(Sc3ncnc4sccc34)nnc2N2CCCC2)cc1 ?
Key: 0.0

Exercise: What outcome does the record of this test show for Clc1ccc(CNc2nc(NCCc3cnc[nH]3)nc(NC3CCCCC3)n2)cc1 ?
Key: 0.0
